Reference for the values: the supplement of paper PMC11246515

# ASSAY DETAILS: total protein half-life in vivo (active degradation + dilution); higher = more stable protein
# RUN PARAMETERS: wild type E. coli NCM3722; growth: N-lim chemostat; doubling time 12 h
Think of 7 h as a floor: if total protein half-life in vivo stands on it or above, it is Yes; beneath it, No.

{"SEQ STRING": "MKKIGVILSGCGVYDGSEIHEAVLTLLAISRSGAQAVCFAPDKQQVDVINHLTGEAMTETRNVLIEAARITRGEIRPLAQADAAELDALIVPGGFGAAKNLSNFASLGSECTVDRELKALAQAMHQAGKPLGFMCIAPAMLPKIFDFPLRLTIGTDIDTAEVLEEMGAEHVPCPVDDIVVDEDNKIVTTPAYMLAQNIAEAASGIDKLVSRVLVLAE [P0ABU5]", "ASSIGNED CLASS": "Yes"}
{"SEQ STRING": "MKLTIIRLEKFSDQDRIDLQKIWPEYSPSSLQVDDNHRIYAARFNERLLAAVRVTLSGTEGALDSLRVREVTRRRGVGQYLLEEVLRNNPGVSCWWMADAGVEDRGVMTAFMQALGFTAQQGGWEKC", "ASSIGNED CLASS": "No"}
{"SEQ STRING": "MIEILHEYWKPLLWTDGYRFTGVAITLWLLILSVVIGGVLALFLAIGRVSSNKYIQFPIWLFTYIFRGTPLYVQLLVFYSGMYTLEIVKGTEFLNAFFRSGLNCTVLALTLNTCAYTTEIFAGAIRSVPHGEIEAARAYGFSTFKMYRCIILPSALRIALPAYSNEVILMLHSTALAFTATVPDLLKIARDINAATYQPFTAFGIAAVLYLIISYVLISLFRRAEKRWLQHVKPSSTH [P0AEU3]", "ASSIGNED CLASS": "Yes"}
{"SEQ STRING": "MYHDVSYLLSRLINGPLSLRQIYFASSNGPVPDLAYQVDFPRLEIVLEGEFVDTGAGATLVPGDVLYVPAGGWNFPQWQAPATTFSVLFGKQQLGFSVVQWDGKQYQNLAKQHVARRGPRIGSFLLQTLNEMQMQPQEQQTARLIVASLLSHCRDLLGSQIQTASRSQALFEAIRDYIDERYASALTRESVAQAFYISPNYLSHLFQKTGAIGFNEYLNHTRLEHAKTLLKGYDLKVKEVAHACGFVDSNYFCRLFRKNTERSPSEYRRQYHSQLTEKPTTPE", "ASSIGNED CLASS": "No"}
{"SEQ STRING": "MNRIEHYHDWLRDAHAMEKQAESMLESMASRIDNYPELRARIEQHLSETKNQIVQLETILDRNDISRSVIKDSMSKMAALGQSIGGIFPSDEIVKGSISGYVFEQFEIACYTSLLAAAKNAGDTASIPTIEAILNEEKQMADWLIQNIPQTTEKFLIRSETDGVEAKK", "ASSIGNED CLASS": "No"}

---

# ASSAY DETAILS: total protein half-life in vivo (active degradation + dilution); higher = more stable protein
# RUN PARAMETERS: wild type E. coli NCM3722; growth: N-lim chemostat; doubling time 12 h
Form field: total protein half-life in vivo (one value per entry).

{"SEQ STRING": "MNLHEYQAKQLFARYGLPAPVGYACTTPREAEEAASKIGAGPWVVKCQVHAGGRGKAGGVKVVNSKEDIRAFAENWLGKRLVTYQTDANGQPVNQILVEAATDIAKELYLGAVVDRSSRRVVFMASTEGGVEIEKVAEETPHLIHKVALDPLTGPMPYQGRELAFKLGLEGKLVQQFTKIFMGLATIFLERDLALIEINPLVITKQGDLICLDGKLGADGNALFRQPDLREMRDQSQEDPREAQAAQWELNYVALDGNIGCMVNGAGLAMGTMDIVKLHGGEPANFLDVGGGATKERVTEAFKIILSDDKVKAVLVNIFGGIVRCDLIADGIIGAVAEVGVNVPVVVRLEGNNAELGAKKLADSGLNIIAAKGLTDAAQQVVAAVEGK [P0A836]", "total protein half-life in vivo": "7.39 h"}
{"SEQ STRING": "MNTTLFRWPVRVYYEDTDAGGVVYHASYVAFYERARTEMLRHHHFSQQALMAERVAFVVRKMTVEYYAPARLDDMLEIQTEITSMRGTSLVFTQRIVNAENTLLNEAEVLVVCVDPLKMKPRALPKSIVAEFKQ [P0A8Z3]", "total protein half-life in vivo": "12.3 h"}

---

# ASSAY DETAILS: total protein half-life in vivo (active degradation + dilution); higher = more stable protein
# RUN PARAMETERS: E. coli NCM3722 delta-lon; growth: N-lim chemostat; doubling time 6 h

{"SEQ STRING": "MTISELLQYCMAKPGAEQSVHNDWKATQIKVEDVLFAMVKEVENRPAVSLKTSPELAELLRQQHSDVRPSRHLNKAHWSTVYLDGSLPDSQIYYLVDASYQQAVNLLPEEKRKLLVQL [P0AF50]", "total protein half-life in vivo (h)": 5.47}
{"SEQ STRING": "MSEPLDLNQLAQKIKQWGLELGFQQVGITDTDLSESEPKLQAWLDKQYHGEMDWMARHGMLRARPHELLPGTLRVISVRMNYLPANAAFASTLKNPKLGYVSRYALGRDYHKLLRNRLKKLGEMIQQHCVSLNFRPFVDSAPILERPLAEKAGLGWTGKHSLILNREAGSFFFLGELLVDIPLPVDQPVEEGCGKCVACMTICPTGAIVEPYTVDARRCISYLTIELEGAIPEELRPLMGNRIYGCDDCQLICPWNRYSQLTTEEDFSPRKPLHAPELIELFAWSEEKFLKVTEGSAIRRIGHLRWLRNIAVALGNAPWDETILTALESRKGEHPLLDEHIAWAIAQQIERRNACIVEVQLPKKQRLVRVIEKGLPRDA", "total protein half-life in vivo (h)": 2.85}
{"SEQ STRING": "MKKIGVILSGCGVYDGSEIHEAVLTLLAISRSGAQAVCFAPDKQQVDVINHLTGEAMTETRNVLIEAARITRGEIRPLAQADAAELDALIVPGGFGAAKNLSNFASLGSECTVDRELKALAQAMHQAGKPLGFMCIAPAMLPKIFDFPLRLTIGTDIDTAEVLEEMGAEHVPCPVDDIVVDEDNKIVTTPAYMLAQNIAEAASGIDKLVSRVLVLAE [P0ABU5]", "total protein half-life in vivo (h)": 5.05}

---

# ASSAY DETAILS: total protein half-life in vivo (active degradation + dilution); higher = more stable protein
# RUN PARAMETERS: wild type E. coli NCM3722; growth: P-lim chemostat; doubling time 12 h
Think of 10 h as a floor: if total protein half-life in vivo stands on it or above, it is condition met; beneath it, condition not met.

{"SEQ STRING": "MTQPLFLIGPRGCGKTTVGMALADSLNRRFVDTDQWLQSQLNMTVAEIVEREEWAGFRARETAALEAVTAPSTVIATGGGIILTEFNRHFMQNNGIVVYLCAPVSVLVNRLQAAPEEDLRPTLTGKPLSEEVQEVLEERDALYREVAHIIIDATNEPSQVISEIRSALAQTINC [P0A6E1]", "ASSIGNED CLASS": "condition not met"}
{"SEQ STRING": "MSFFHASQRDALNQSLAEVQGQINVSFEFFPPRTSEMEQTLWNSIDRLSSLKPKFVSVTYGANSGERDRTHSIIKGIKDRTGLEAAPHLTCIDATPDELRTIARDYWNNGIRHIVALRGDLPPGSGKPEMYASDLVTLLKEVADFDISVAAYPEVHPEAKSAQADLLNLKRKVDAGANRAITQFFFDVESYLRFRDRCVSAGIDVEIIPGILPVSNFKQAKKFADMTNVRIPAWMAQMFDGLDDDAETRKLVGANIAMDMVKILSREGVKDFHFYTLNRAEMSYAICHTLGVRPGL [P0AEZ1]", "ASSIGNED CLASS": "condition met"}
{"SEQ STRING": "MDKQSLHETAKRLALELPFVELCWPFGPEFDVFKIGGKIFMLSSELRGVPFINLKSDPQKSLLNQQIYPSIKPGYHMNKKHWISVYPGEEISEALLRDLINDSWNLVVDGLAKRDQKRVRPG [P0AAT2]", "ASSIGNED CLASS": "condition met"}
{"SEQ STRING": "MAHRPRWTLSQVTELFEKPLLDLLFEAQQVHRQHFDPRQVQVSTLLSIKTGACPEDCKYCPQSSRYKTGLEAERLMEVEQVLESARKAKAAGSTRFCMGAAWKNPHERDMPYLEQMVQGVKAMGLEACMTLGTLSESQAQRLANAGLDYYNHNLDTSPEFYGNIITTRTYQERLDTLEKVRDAGIKVCSGGIVGLGETVKDRAGLLLQLANLPTPPESVPINMLVKVKGTPLADNDDVDAFDFIRTIAVARIMMPTSYVRLSAGREQMNEQTQAMCFMAGANSIFYGCKLLTTPNPEEDKDLQLFRKLGLNPQQTAVLAGDNEQQQRLEQALMTPDTDEYYNAAAL", "ASSIGNED CLASS": "condition not met"}
{"SEQ STRING": "MALLNVDKLSVHFGDESAPFRAVDRISYSVKQGEVVGIVGESGSGKSVSSLAIMGLIDYPGRVMAEKLEFNGQDLQRISEKERRNLVGAEVAMIFQDPMTSLNPCYTVGFQIMEAIKVHQGGNKSTRRQRAIDLLNQVGIPDPASRLDVYPHQLSGGMSQRVMIAMAIACRPKLLIADEPTTALDVTIQAQIIELLLELQQKENMALVLITHDLALVAEAAHKIIVMYAGQVVETGDAHAIFHAPRHPYTQALLRALPEFAQDKERLASLPGVVPGKYDRPNGCLLNPRCPYATDRCRAEEPALNMLADGRQSKCHYPLDDAGRPTL [P0AAG0]", "ASSIGNED CLASS": "condition met"}
{"SEQ STRING": "MKILVDENMPYARDLFSRLGEVTAVPGRPIPVAQLADADALMVRSVTKVNESLLAGKPIKFVGTATAGTDHVDEAWLKQAGIGFSAAPGCNAIAVVEYVFSSLLMLAERDGFSLYDRTVGIVGVGNVGRRLQARLEALGIKTLLCDPPRADRGDEGDFRSLDELVQRADILTFHTPLFKDGPYKTLHLADEKLIRSLKPGAILINACRGAVVDNTALLTCLNEGQKLSVVLDVWEGEPELNVELLKKVDIGTSHIAGYTLEGKARGTTQVFEAYSKFIGHEQHVALDTLLPAPEFGRITLHGPLDQPTLKRLVHLVYDVRRDDAPLRKVAGIPGEFDKLRKNYLERREWSSLYVICDDASAASLLCKLGFNAVHHPAR", "ASSIGNED CLASS": "condition met"}
